# System: MS2 coat protein
# method: apparent KD of MS2 coat protein; designed switch direction (-1 OFF switch, 1 ON switch): -1; higher = weaker reporter binding
# condition-label: Eterna round: R95; input ligand: none
measured-property: apparent KD of MS2 coat protein

chain: AAAAAGGCAGGAUAUACAUGAGGAUCACCCAUGUGAAAAAACAAAAAAAAAAAAAAAGGUAGAAGGGCCGAAAA [Science Triplets #3] (puzzle: Exclusion 3)
assayed-target: MS2 coat protein
apparent KD of MS2 coat protein: 0.0276 µM
//
chain: GUGUGCAGAGGAUAUACAUAGGAAAAUAAAAGAGAAGUGGGACAUGAGGAUCACCCAUGUAGAAGGCUGAGUGU [Excluse me!! 22 - Jieux - Exclusion 2] (puzzle: Exclusion 2)
assayed-target: MS2 coat protein
apparent KD of MS2 coat protein: 0.0728 µM
//
chain: AGUACUAUGCGAGCUGACUUGCGUAGUGCAGCAGGUGAAACAUGAGGAUCACCCAUGUCCUCAUUUGCUCGUCUUAA [Mat - Sensor v3 - Turn-off var 2 - D3] (puzzle: Sensor v3, turn-off variant 2)
assayed-target: MS2 coat protein
apparent KD of MS2 coat protein: 0.038 µM
//
chain: CUGAGCAGACGGAAAUCCAACAUGAGGAUCACCCAUGUCUCAAAAGCUUUUUGCUCGUCUUAUCUUCCUCUGCUCUC [Cecelein] (puzzle: Sensor v3, turn-off variant 1)
assayed-target: MS2 coat protein
apparent KD of MS2 coat protein: 0.0118 µM
//
chain: GAUUGACAUGAGGAUCACCCAUGUGAGGAUAUCGGCCGGACCGUGCCGGCUUCCGUCGCGAGAAGGCGCAUAGG [Exclusion 1 V40] (puzzle: Exclusion 1)
assayed-target: MS2 coat protein
apparent KD of MS2 coat protein: 0.0373 µM
//
chain: CGAUGUUAUGUCAGGAUAUGCGUUGCGAAAGCAAUGUAGAAGGGACAUGAGGAUCACCCAUGUCCUAACCAUCG [Omei A 8] (puzzle: Brourd's mod of Exclusion 4)
assayed-target: MS2 coat protein
apparent KD of MS2 coat protein: 0.0135 µM
//
chain: AGAUGGCGAGGAUAUACAUGAGGAUCACCCAUGUGAGAUAAUAAAGUGAGGAAGAAAAGUAGAAGGCGCUGUCA [Mat - Exclusion 3 - Mod of Salish D13] (puzzle: Exclusion 3)
assayed-target: MS2 coat protein
apparent KD of MS2 coat protein: 0.0568 µM
//
chain: AUCAUGUCAGGAUAUAUGACAUGGCUCUUCGGAGCAAGAUCAUAGAAGGGACAUGAGGAUCACCCAUGUAGAUC [Ex4-3: 23] (puzzle: Exclusion 4)
assayed-target: MS2 coat protein
apparent KD of MS2 coat protein: 0.188 µM
//
chain: CCGAAGUGGCGGUCCUAUGACAUGAGGAUCACCCAUGUACUUCGCCACGAGCUUUUUGCUCGUCUUAUAGUUCUCGG [Sensor v3, turn-off variant 1 (MOD of Ator)] (puzzle: Sensor v3, turn-off variant 1)
assayed-target: MS2 coat protein
apparent KD of MS2 coat protein: 0.504 µM

Please find the next sequence below.
*Q* Look at this sequence and give its reported apparent KD of MS2 coat protein. GAUUAUGCGAGCUUUAGGGACAUGAGGAUCACCCAUGUUCGUCUUAUUGGUCUAAAUGCACUAACAUACCUAAAUCU [JMF 23] (puzzle: Sensor v3, turn-off variant 1)
*A* 0.0193 µM

Source of measurements: the supplement of paper PMC9170038
